Target: UniProt:Q9BV86
Sequence (Q9BV86 whole entry): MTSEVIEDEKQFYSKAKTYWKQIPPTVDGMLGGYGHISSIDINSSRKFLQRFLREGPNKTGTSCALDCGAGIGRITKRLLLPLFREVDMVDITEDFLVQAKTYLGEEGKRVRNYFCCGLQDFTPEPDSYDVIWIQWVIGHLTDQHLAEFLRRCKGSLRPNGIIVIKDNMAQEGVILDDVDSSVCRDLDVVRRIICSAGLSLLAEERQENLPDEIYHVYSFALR
observed.property: log10(IC50) (log10 of the value in µM)
Could you please treat all values as log10 of IC50 in µM?

Enquiry: Form entry - test system: UniProt:Q9BV86; read-out: log10(IC50); compound: `CNc1nc(C(C)(C)NC(=O)O[C@@H]2CN3CCC2CC3)cs1`
Return: 1.70

Enquiry: Item `CC(C)(NC(=O)O[C@@H]1CN2CCC1CC2)c1csc(-c2ccoc2)n1` with UniProt:Q9BV86 - log10(IC50)?
Return: 1.96

Enquiry: Form entry - test system: UniProt:Q9BV86; read-out: log10(IC50); compound: `CC(C)(NC(=O)O[C@@H]1CN2CCC1CC2)c1csc(-c2ccccc2O)n1`
Return: 0.66

Enquiry: Please state recorded log10(IC50) (tested on UniProt:Q9BV86) of `CC(C)(NC(=O)O[C@@H]1CN2CCC1CC2)c1csc(-c2ccc(F)nc2)n1`
Return: 0.18

Enquiry: Fill in the recorded log10(IC50) for this compound, with UniProt:Q9BV86 as test system: `CC(C)(NC(=O)N[C@@H]1CN2CCC1CC2)c1csc(-c2ccc(F)cc2)n1`
Return: 1.60

Enquiry: Under UniProt:Q9BV86: log10(IC50) value of `CC(C)(NC(=O)O[C@@H]1CN2CCC1CC2)c1csc(-c2ccc(F)cc2O)n1` ?
Return: -0.52

Enquiry: What log10(IC50) appears in the records for this compound with UniProt:Q9BV86? `CC(C)(NC(=O)O[C@@H]1CN2CCC1CC2)c1csc(-c2ccc(N)cc2)n1`
Return: 0.88

Enquiry: Please state recorded log10(IC50) (tested on UniProt:Q9BV86) of `COc1ccc(-c2nc(C(C)(C)NC(=O)O[C@@H]3CN4CCC3CC4)cs2)cc1`
Return: 1.73

Enquiry: Query log10(IC50) on UniProt:Q9BV86 for `CC(C)(NC(=O)O[C@@H]1CN2CCC1CC2)c1csc(-c2ccccn2)n1`
Return: 0.57

Enquiry: GET /values?readout=log10(IC50)&system=UniProt:Q9BV86&item= `CC(C)(NC(=O)O[C@@H]1CN2CCC1CC2)c1csc(-c2cccc3ccccc23)n1`
Return: 1.64

Enquiry: Please tell me: log10(IC50) of `CC(C)(NC(=O)O[C@@H]1CN2CCC1CC2)c1csc(-c2ccc(O)cc2)n1` , system UniProt:Q9BV86?
Return: 1.40

Enquiry: Checklist item: log10(IC50) tested on UniProt:Q9BV86, entry `CC(C)(NC(=O)O[C@@H]1CN2CCC1CC2)c1csc(-c2cccc(O)c2)n1` , value?
Return: -0.25

Enquiry: Quick check: log10(IC50) on UniProt:Q9BV86, item `CC(C)(NC(=O)O[C@@H]1CN2CCC1CC2)c1csc(-c2cccc([N+](=O)[O-])c2)n1` ?
Return: 1.81

Enquiry: Fill in the recorded log10(IC50) for this compound, with UniProt:Q9BV86 as test system: `CC(C)(NC(=O)O[C@@H]1CN2CCC1CC2)c1csc(I)n1`
Return: 1.66

Enquiry: Lab request: please report log10(IC50) under test system UniProt:Q9BV86 for `CC(C)(NC(=O)O[C@@H]1CN2CCC1CC2)c1csc(-c2cccc(N)c2)n1`
Return: 0.88

Enquiry: Notebook: pull reported log10(IC50) for UniProt:Q9BV86, entry `CN1CCC[C@H](OC(=O)NC(C)(C)c2csc(-c3ccc(F)cc3)n2)C1`
Return: 1.40

Enquiry: Record `CC(C)(NC(=O)O[C@@H]1CN2CCC1CC2)c1csc(-c2ccco2)n1` : what is its log10(IC50) with UniProt:Q9BV86?
Return: 1.32

Enquiry: API: value(readout= log10(IC50), system= UniProt:Q9BV86, query= `CC(C)(NC(=O)O[C@@H]1CN2CCC1CC2)c1csc(-c2ccsc2)n1` )
Return: 0.96

Enquiry: Notebook: pull reported log10(IC50) for UniProt:Q9BV86, entry `CC(C)(NC(=O)O[C@@H]1CN2CCC1CC2)c1csc(-c2ccccc2N)n1`
Return: 0.85

Enquiry: Form field - read-out: log10(IC50); system: UniProt:Q9BV86; submitted item: `CC(C)(NC(=O)O[C@@H]1CN2CCC1CC2)c1csc(-c2cccnc2)n1`
Return: 0.45

Enquiry: Item: `CC(C)(NC(=O)O[C@@H]1CN2CCC1CC2)c1csc(-c2cccs2)n1` Test system: UniProt:Q9BV86 Read-out: log10(IC50) Value: ?
Return: 0.38

---

Assay: Half-life in CD-1 mouse at 25 mg/kg, po measured upto 24 hrs
Assay type: ADME, organism-based
Details: in vivo
observed.property: half-life (min)
Kindly answer with a numeric value in min, unit omitted.

Enquiry: Look up half-life for this compound: `CC(C)(NC(=O)O[C@@H]1CN2CCC1CC2)c1csc(-c2ccc(F)c(O)c2)n1`
Return: 158

---

Test: Drug concentration in CD-1 mouse plasma at 25 mg/kg, po measured after 4 hrs
Format: ADME, organism-based
observed.property: concentration at 4 h

Enquiry: # get_value(readout='concentration at 4 h', item= `CC(C)(NC(=O)O[C@@H]1CN2CCC1CC2)c1csc(-c2ccc(F)c(O)c2)n1` )
Return: > 18.8 ng/mL
